ASSAY METHOD TEXT: Stability of NTI164 oil formulation at room temperature (UPLC)
STATED CONDITIONS: NTI164 oil, room temperature, Week 32
Assign class by Cannabinoid content of NTI164, Week 32: not lower than 1 mg/mL means y; lower than 1 mg/mL means n.

{"COMPOUND": "CCCCCc1cc(O)c2c(c1)OC(C)(C)c1ccc(C)cc1-2", "ASSIGNED CLASS": "y"}
{"COMPOUND": "CCCCCc1cc(O)c2c(c1)OC(C)(C)[C@@H]1CCC(C)=C[C@@H]21 [Tetrahydrocannabinol (D9-THC), Delta-9-tetrahydrocannabinol]", "ASSIGNED CLASS": "n"}
{"COMPOUND": "CCCCCc1cc(O)c2c(c1)OC(C)(CCC=C(C)C)C=C2 (stereo not shown)", "ASSIGNED CLASS": "y"}
{"COMPOUND": "CCCCCc1cc(O)c(C/C=C(\\C)CCC=C(C)C)c(O)c1C(=O)O", "ASSIGNED CLASS": "y"}
{"COMPOUND": "C=C(C)[C@@H]1CCC(C)=C[C@H]1c1c(O)cc(CCCCC)cc1O", "ASSIGNED CLASS": "n"}
{"COMPOUND": "CCCCCc1cc(O)c2c(c1)OC(C)(C)C1CC=C(C)CC21 (stereo not shown) [DELTA-8-THC (D8-THC), Delta-8-tetrahydrocannabinol]", "ASSIGNED CLASS": "n"}
{"COMPOUND": "C=C(C)[C@@H]1CCC(C)=C[C@H]1c1c(O)cc(CCCCC)c(C(=O)O)c1O", "ASSIGNED CLASS": "y"}
